For each of the sequences below, state its soluble fraction (log2).
Test: soluble fraction after stress (log2 fold change); higher = more stays soluble; pooled small domains, quantitative proteomics
Details: stress: 50 degC

Look up soluble fraction (log2): `HMPANVELLRTFTNKTGTKIKARIVAVSDNKVKLIRDDSKKFIVPIDSLSEEDQKYLKDWIANEVGEQ`
0.0498

Consider the sequence shown here: `HMEDGRLPPPGTVLRREYKGRAVFVRVLPKGFEFEGEVYRSLSAIAAKVTGSHWNGFRFFGLHE` What is its recorded soluble fraction (log2)?
-1.54

Entry `HMDALTLSIDAQGALYWNGQPVSRELAAQRFVEAAAQRPQPELHLRADQNVAYRHVAMTLADASRAGLTR` : reported soluble fraction (log2) = ?
-0.0244

Given the sequence `HMSVFTPLTRSELETFLAPYELGRLLDFQGIAAGSENTNYFISLEKGEYVLTLVERGPVAEMPFFIELLD` , what is its reported soluble fraction (log2)?
-0.982

So what's the measured soluble fraction (log2) for this one? `HMNTNDFTIGTRVRTTKKGNGSSDGTSNTARSGIEGTITRIIPEAKYPYLVSTTVPMGWYKKDALEK`
0.0875

Given `HMKYNGDRPVFNDDVAWAKWMLENPAKITSHDKENLSSMLKKPEVVMLFEAEDLSVPDLRTLAKE` , state its recorded soluble fraction (log2).
0.236

What does the record list as soluble fraction (log2) for `HMSLLTPLEEARIVIEELIIPQKLTLDLLPQNSQIRKLQHEIINHYRLKGISIGDGKNRRVRIYS` ?
-0.133

Look up soluble fraction (log2) for this sequence: `HMDTLRARQEAAYRFLSAIAGDWRNYEEANRALFAGDAARFQDLTESWPADVRDHARHLASAAFSS`
-0.543

----------
Assay: soluble fraction after stress (log2 fold change); higher = more stays soluble; pooled small domains, quantitative proteomics
Conditions: stress: 50 degC
OBSERVATION_TYPE: soluble fraction (log2)
Lab note: jot the number down without any unit.

Quick one: soluble fraction (log2) of `HMATESYYVLKADVPAKTLVTQEMVEEIKVSKGGAPVNSIKIDNIKEKGVYTSIPLLKGDVLSASNTG` ?
0.00692

// soluble fraction (log2) lookup, key: `HMKSFDERQAALNELAKVIEGTGRKAEQDAEFRREQNQLMIDKIDEQLKGDLTDSQREELKKERAALARK`
0.153

What does the data say about its soluble fraction (log2)? Entry: `HMSRVSVDGEEVNFEGEIPDDPSRIYELLMGALSEQSRVVVKFFVDGKDALLDEGFPSRYQMIEAESV`
-0.285

Entry `HMPATIEGIRLYLSSGLIKGVGEEMASRIVKAFGTDTIRVLDEEPERLLKVRGVGKKSLDRIRTSWAEH` : reported soluble fraction (log2) = ?
-0.386

Item `HMPSSQQVMRRLATVGPDKTLEELQRQHDAHLRKYGEFNDFRGERQQMRQEMERIKEAKQGTGPYAHLMG` has what recorded soluble fraction (log2)?
0.0233

So what does the record say about soluble fraction (log2) for `HMDYKSTLQELVQTVKKSVTYEVIDEEGPSHNKTFTSIVKIDGIVMGKGTAGSKKASEQEAARDALSKR` ?
0.271

// returns reported soluble fraction (log2) for input `HMNHNPSIARKISREIKRGAPPESLLNLARTVNDSYYRSLSFVSIAYSIKGKKSKELFEEAISNLT`
-0.161

Endpoint output: soluble fraction (log2) of `HMNTGTTISYSDFRDRVASGTVKEVQISDDRITGVLKNDETFNTVPVGNDSGLTKLLDDNGVTYSGTP` . Value?
0.174

soluble fraction (log2) for `HMGTHVVQEGEYLDLIIEKTIPGSPIRKDLLRKAFVKLNPSAFGGRGNPNYIFARKKLKVPSVEDLKAVIF` ?
-0.0708

What does the data say about its soluble fraction (log2)? Entry: `HMISRKIKELRLSHDLTQKDLADYLNLTPKMVSFYELGQRVPPSDIILKLAEKFHVSTDYLLGNEDRP`
-0.0279

I am curious: what soluble fraction (log2) value has been reported for `HMGLVDSLEPLLRRVYEALPQRRSMTTERLAVAAGLDEESVKVALARLQLSAFVGVDERGWHRSL` ?
-1.11

Field request: soluble fraction (log2) | item: `HMDGVNRDKIEYRLDDLYYLKGSDAPYTGKVFEEWSGQQRVETNYIDGKLDGLSESWHENGQKASEVNY`
0.345

Entry under review: `HMAAGELSGEALIALIERHPMALSALATTFGHSESDLRAFVEPLARQGRLRLFESQGTLFVGGIG` . Reported soluble fraction (log2)?
-0.022

Item `HMGKNISEEDMLGYFKKIDLDYDAETKEVIAPTFRHDLFRLADLAEEVARFFGYDNIPTTLPSGEAT` has what recorded soluble fraction (log2)?
0.0416

Can you look up the measured soluble fraction (log2) of `HMGTSFEDIDRAVKSVRKPETDEAEKLHAGKTFKDIAETELFQKLTESFAGISDRVNEVIDLYTARAAE` for me?
0.143

Looking for the measured soluble fraction (log2) of `HMLTEERLQIITDTVNSRSSVTIAELSRILDVSPSTVKRDLNILAEAGKITKVRGGAIALGE` , can you help?
-0.0232

Name the recorded soluble fraction (log2) for `HMTSSQLYLIEEDMEGERLDAFLAEVIADLSRTAIKDLISNGRVLVDGQARKPSYRVKEGEQVLIHVPEAR` .
-0.0195

----------
Test: soluble fraction after stress (log2 fold change); higher = more stays soluble; pooled small domains, quantitative proteomics
Settings: stress: 50 degC
OBSERVATION_TYPE: soluble fraction (log2)

Any idea what soluble fraction (log2) was measured for `HMKVGEIIKAKREELKIPLVNFAKELDISQGYLSQIENGIKTNPNLDIILKIIHRLDIDLAMLL` ?
-1.32

Recorded soluble fraction (log2) for `HMIDEKVQAADKSIEIGNLSPLKGLVTDDEMHELEKLFEKVMALKDFEVNDVGAGRKYIEAYVSFFKFAEG` , please?
-0.661

Please report the recorded soluble fraction (log2) for `HMGTVISVDKARSIALAKVPGASANDIRIHLDRDDGRQIYEGEIYYNRMEYEFEIDASTGTIIEWSAEHW` .
-1.73

Endpoint output: soluble fraction (log2) of `HMATSNGEFVIPDGGLQFEELERSLLMQALKKSGGSQTGAARLLGLSRDTLRYRLEKFGIDAAAVRE` . Value?
-0.165

Endpoint output: soluble fraction (log2) of `HMEMLQENIRNLRKAKGWSQEELAIKLNVVRQTVSKWEKGLSVPDSQMLIRIADELDTTVAILLG` . Value?
-0.246

Reported soluble fraction (log2) for `HMNREYELTAEESGQRLDKYLAGEMTDLSRSRIKELVQAGEILVNGKKSKVSYKVQKDDLIQVIVLPLE` : what is it?
-0.285

# soluble fraction (log2) lookup, item `HMTVPMKILILEDEQRNAMRLIRLLNDIDTTFIIEGPLTNIKEAVDFFQSGKTTDLILADIRL`
-0.147

Look up soluble fraction (log2): `HMAKPVNISAEPYHYDPTRFRVTFELPRLSDQPRKRIRKVAPAGLDREQALAWAKRLEREVLHELLR`
-0.494

Param item = `HMGGPAGPDFTYTGDDLTRIDYDDGSYKVFTYDAGKLSQIDFTSGGTTTRKTFVYSGDTLIRVDQTI` ; retrieve measured soluble fraction (log2).
-0.44

Find the recorded soluble fraction (log2) belonging to `HMQAKDVEIPNFVGKTLAEANADNKDNFNFVVESKYDASKELGVILEQEPAADSKLVKSGSQITLKV` and report it.
≥ 0.62

Which soluble fraction (log2) reading was recorded for the sequence `HMGRGSEDEQMRGLAVILAEQKQIMQTLGVENEVVKPEQYINTLKRMAELNGFKDTDQFFSIPQ` ?
0.339

Which soluble fraction (log2) is listed for `HMSNRDNPVVLDFKKVKSTEQLDNILEEYIRENFEGYTVKGRMFSSDEGKFIIALALKDDDGKRALVYFDV` ?
-0.635

Fill blank: measured soluble fraction (log2) of the sequence `HMIKITLPDGSVKEYKKGITPAEVAQSISEGLARNVISASYNGKTIETVTPLTTDGSLVLYTWDSPEGK` is ____.
0.193

I have this sequence here, `HMAADRRKAERPLIDGQAVMDRFEVGPGPMVGKALKFLLALKRAEPDLDLAGTEERLDAWWNEQL` , and I need its recorded soluble fraction (log2).
0.262

Report soluble fraction (log2) for `HMEYYWHQLKGLEVVNTRGESLGRVRRLLETGANDVLVLEGEQERLIPYVPDTIKQVDLAKGLIEVAWDRD` please.
-0.0728

Which soluble fraction (log2) reading was recorded for the sequence `HMTQDFEPGGQVFSRGEWLTIIRVNKSNGAVSSVTTPNYSFLGYSGTMKVTPDRITDYKAPSAEEAAVAS` ?
-0.281

Suppose we examine the sequence `HMVKVSVYPNPAVDRITISGEVKAYAVYDATGKVVMKDTDYRGGAIGVSHLPAGIYIVRTDAGAVTVNK` ; what soluble fraction (log2) value has been reported?
-0.652
